Catalogue of ED50 readings, one per entry.
study target: cerebral H1 receptor (Mus musculus)
Construct: The excised brain tissue was homogenized with Polytron (Kinematica); from tissue; host or cells: ICR mouse brain (entire brain except cerebellum and medulla oblongata), homogenate
protocol: Murine cerebral H1 receptor occupying content (ex vivo, 3H-pyrilamine binding in brain homogenate after oral administration)
protocol conditions: mouse, po, 1 h, read-out: ID50
Give your result in mg/kg as a bare value.

Please review the entries below; each comes with its answer.
| line notation | ED50 [mg/kg] |
| --- | --- |
| Cl.O=C(O)Cc1ccc2c(c1)/C(=C\CCN1CCCC1)c1sccc1CO2 | 51.4 |
| CCN(C)CC/C=C1\c2cc(CC(=O)O)ccc2OCc2ccsc21 | 95 |

# input for lookup
IN: Can you share its ED50? I mean this compound: CN(C)CC/C=C1/c2ccccc2CCc2sc(CC(=O)O)cc21.Cl
OUT: 2.1

###

Catalogue of ED50 readings, one per entry.
study target: cerebral H1 receptor (Mus musculus)
Construct: The excised brain tissue was homogenized with Polytron (Kinematica); from tissue; host or cells: ICR mouse brain (entire brain except cerebellum and medulla oblongata), homogenate
protocol: Murine cerebral H1 receptor occupying content (ex vivo, 3H-pyrilamine binding in brain homogenate after oral administration)
protocol conditions: ICR male mouse, oral administration, brain excised after 1 hour; larger ID50 = lower brain transfer; read-out: ID50 (the source's name)
Give your result in mg/kg as a bare value.

Please review the entries below; each comes with its answer.
| line notation | ED50 [mg/kg] |
| --- | --- |
| O=C(O)CCc1ccc2c(c1)/C(=C\CCN1CCCC1)c1ccsc1CO2 | 110 |
| O=C(O)Cc1ccc2c(c1)/C(=C\CCN1CCCC1)c1sccc1CO2 | 80.9 |
| CN(C)CCC=C1c2cc(C(C)(C)C(=O)O)ccc2OCc2ccsc21 | 18.7 |

# input for lookup
IN: Can you share its ED50? I mean this molecule: CN(C)CC/C=C1\c2cc(CC(=O)O)ccc2OCc2ccsc21
OUT: 6.08

###

study target: cerebral H1 receptor (Mus musculus, UniProt P70174)
Construct: The excised brain tissue was homogenized with Polytron (Kinematica); from tissue; host or cells: ICR mouse brain (entire brain except cerebellum and medulla oblongata), homogenate
Sequence (P70174 whole entry): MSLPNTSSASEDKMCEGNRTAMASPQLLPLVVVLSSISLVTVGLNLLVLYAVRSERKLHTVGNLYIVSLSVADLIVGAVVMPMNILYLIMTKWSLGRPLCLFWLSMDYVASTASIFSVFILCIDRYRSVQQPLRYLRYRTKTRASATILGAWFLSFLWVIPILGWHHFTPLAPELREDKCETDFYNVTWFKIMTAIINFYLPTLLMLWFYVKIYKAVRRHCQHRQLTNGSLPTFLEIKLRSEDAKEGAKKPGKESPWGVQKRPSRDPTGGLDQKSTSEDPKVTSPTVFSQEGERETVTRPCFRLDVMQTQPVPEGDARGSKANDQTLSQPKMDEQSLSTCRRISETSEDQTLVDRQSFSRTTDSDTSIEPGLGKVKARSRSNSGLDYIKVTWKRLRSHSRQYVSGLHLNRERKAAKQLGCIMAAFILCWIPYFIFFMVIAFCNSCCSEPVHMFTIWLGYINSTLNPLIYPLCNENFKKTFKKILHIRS
protocol: Murine cerebral H1 receptor occupying content (ex vivo, 3H-pyrilamine binding in brain homogenate after oral administration)
protocol conditions: ICR male mouse, oral administration, brain excised after 1 hour; larger ID50 = lower brain transfer; read-out: ID50 (the source's name)
Counter-ions that a name gives are not always drawn.
Label YES when ED50 is strictly below 70 mg/kg; otherwise label NO.

Answered cases to consult:
| compound | discrete label |
| --- | --- |
| CN(C)CC/C=C1/c2cc(CC(=O)O)ccc2OCc2sccc21 | YES |
| O=C(O)Cc1ccc2c(c1)/C(=C/CCN1CCCC1)c1sccc1CO2 | NO |
| O=C(O)Cc1ccc2c(c1)/C(=C/CCN1CCOCC1)c1sccc1CO2 | YES |
| CN(C)CC/C=C1/c2cc(CC(=O)O)ccc2OCc2ccsc21 | NO |
| CN(C)CC/C=C1/c2ccccc2CCc2sc(C(=O)O)cc21 | YES |
| CN(C)CC/C=C1\c2cc(CC(=O)O)ccc2OCc2sccc21 | YES |

IN: Please determine if O=C(O)Cc1ccc2c(c1)/C(=C\CCN1CCCCC1)c1sccc1CO2 is below 70 mg/kg in terms of ED50.
OUT: YES

IN: Please determine if CCOC(=O)C(C)(C)c1cc2c(s1)C(=O)Cc1ccccc1C2=CCCN(C)C [Compound 24, hydrochloride] is below 70 mg/kg in terms of ED50.
OUT: NO

IN: Please determine if O=C(O)Cc1ccc2c(c1)/C(=C/CCN1CCCCC1)c1sccc1CO2 is below 70 mg/kg in terms of ED50.
OUT: YES
